Tested on: MCF10A
Assay: one-nucleolus phenotype percent effect (relative to siNT 0% and siNOL11 100%); higher = more cells with one nucleolus (ribosome biogenesis inhibition)
Settings: 20 nM; 72 h
measured-attribute: one-nucleolus phenotype percent effect
Just so you know, I need the unit written after the number.

What value of measured one-nucleolus phenotype percent effect is listed for AAAAGUAACUGCGGUUUUUGCCU [hsa-miR-548w] ?
-28.5%

Also AAUUUGGUUUCUGAGGCACUUAGU [hsa-miR-5002-5p] , if possible.
27.3%

Next: AUAUACCUGUUCGGUCUCUUUA [hsa-miR-3144-3p]
-10.5%

Then what about the sequence GUGAGGGACUGGGAUUUGUGG [hsa-miR-6834-5p] ?
-28.7%

Try AGGUGGUCCGUGGCGCGUUCGC [hsa-miR-323a-5p] next.
36.4%

What do we get for CUAGUGCUCUCCGUUACAAGUA [hsa-miR-4473] ?
-11.7%

Entry CUGGCGGCUGUGUCUUCACAG [hsa-miR-6770-3p] please
110%

* * *

System: MCF10A
Assay: one-nucleolus phenotype percent effect (relative to siNT 0% and siNOL11 100%); higher = more cells with one nucleolus (ribosome biogenesis inhibition)
Settings: 20 nM; 72 h
measured-attribute: one-nucleolus phenotype percent effect (%)
Record the value in %, omitting the unit from your answer.

Here is how some sequences turned out for one-nucleolus phenotype percent effect.
query-sequence: CAGGGAACCAGUUGGGGCUU [hsa-miR-6822-5p]
one-nucleolus phenotype percent effect (%): 20.9
--
query-sequence: CUCCUCCACAGCCCCUGCUCAU [hsa-miR-6792-3p]
one-nucleolus phenotype percent effect (%): -4.72
--
query-sequence: UGAAGUACCAGCUACUCGAGAG [hsa-miR-5585-5p]
one-nucleolus phenotype percent effect (%): -3.33
--
query-sequence: CAGGAAGGAUUUAGGGACAGGC [hsa-miR-4476]
one-nucleolus phenotype percent effect (%): 14
--
query-sequence: AAGGCAGGGCCCCCGCUCCCC [hsa-miR-940]
one-nucleolus phenotype percent effect (%): 45.5
--
query-sequence: AUGGUCACCUCCGGGACU [hsa-miR-5587-5p]
one-nucleolus phenotype percent effect (%): -15.8
--
query-sequence: GGGAGGUGUGAUCUCACACUCG [hsa-miR-3689d]
one-nucleolus phenotype percent effect (%): 24.8
--
query-sequence: CUUCCGGUCUGUGAGCCCCGUC [hsa-miR-4664-3p]
one-nucleolus phenotype percent effect (%): 14.5

Now look at this one.
Quick one: one-nucleolus phenotype percent effect for UGGCGAUUUUGGAACUCAAUGGCA [hsa-miR-8053] ?
4.42

* * *

Test system: MCF10A
Assay: 5+ nucleoli phenotype percent effect (relative to siNT 0% and siKIF11 100%); higher = more cells with five or more nucleoli
Settings: 20 nM; 72 h
measured-attribute: 5+ nucleoli phenotype percent effect (%)
Express the result in % but write the number alone.

Examples with answers:
query-sequence: AAAUUCAUGUUCAAUCUAAACC [hsa-miR-4760-3p]
5+ nucleoli phenotype percent effect / %: 10

query-sequence: UGAGUGGGGCUCCCGGGACGGCG [hsa-miR-4745-5p]
5+ nucleoli phenotype percent effect / %: 25

query-sequence: UGUGAUAUCAUGGUUCCUGGGA [hsa-miR-3689b-5p]
5+ nucleoli phenotype percent effect / %: -25.9

query-sequence: UAACGGCCGCGGUACCCUAA [hsa-miR-4485]
5+ nucleoli phenotype percent effect / %: -19.2

query-sequence: UCUGGCUGUUGUGGUGUGCAA [hsa-miR-3064-5p]
5+ nucleoli phenotype percent effect / %: -22.7

Now examine the next entry.
Endpoint output: 5+ nucleoli phenotype percent effect of UCCCAAGGGUGAGAUGCUGCCA [hsa-miR-6814-5p] . Value?
-13.3

* * *

Tested on: MCF10A
Experiment: one-nucleolus phenotype percent effect (relative to siNT 0% and siNOL11 100%); higher = more cells with one nucleolus (ribosome biogenesis inhibition)
Details: 20 nM; 72 h
# key: entry, value: one-nucleolus phenotype percent effect
API: value field is a number in %; no unit string.

Look over these answered cases.
query-sequence: AGGGUAAGCUGAACCUCUGAU [hsa-miR-555]
assayed-target: MCF10A
measured-attribute: one-nucleolus phenotype percent effect
measure-unit: %
numeric-readout: 17.6

query-sequence: UCUGGCUCCGUGUCUUCACUCCC [hsa-miR-149-5p]
assayed-target: MCF10A
measured-attribute: one-nucleolus phenotype percent effect
measure-unit: %
numeric-readout: 30.7

query-sequence: AACAUUCAUUGCUGUCGGUGGGU [hsa-miR-181b-5p]
assayed-target: MCF10A
measured-attribute: one-nucleolus phenotype percent effect
measure-unit: %
numeric-readout: 1.83

// query one-nucleolus phenotype percent effect value for entry UUUGCAGUAACAGGUGUGAGCA [hsa-miR-6516-5p]
80.3

Also check CUGGCGGAGCCCAUUCCAUGCCA [hsa-miR-4730]
118

// same read-out, input: AGCAGAGGCAGAGAGGCUCAGG [hsa-miR-2467-3p]
26.3

* * *

Test system: MCF10A
Assay: one-nucleolus phenotype percent effect, hitpick validation (relative to siNT 0% and siNOL11 100%); higher = more cells with one nucleolus
Conditions: 20 nM; 72 h
measured-attribute: one-nucleolus phenotype percent effect (%)
Give the number; % is assumed, so skip it.

Use these answered entries as a reference point.
query-sequence: AGCUUUUGGGAAUUCAGGUAGU [hsa-miR-3140-3p]
measure-unit: %
one-nucleolus phenotype percent effect: 159
//
query-sequence: CUGGCGGAGCCCAUUCCAUGCCA [hsa-miR-4730]
measure-unit: %
one-nucleolus phenotype percent effect: 230
//
query-sequence: CUCUCCCUCUUUACCCACUAG [hsa-miR-6867-3p]
measure-unit: %
one-nucleolus phenotype percent effect: -40.4
//
query-sequence: AGAUCAGAAGGUGAUUGUGGCU [hsa-miR-383-5p]
measure-unit: %
one-nucleolus phenotype percent effect: 125
//
query-sequence: ACUCGGCGUGGCGUCGGUCGUG [hsa-miR-1307-3p]
measure-unit: %
one-nucleolus phenotype percent effect: 112

Would you kindly share the measured one-nucleolus phenotype percent effect for AGAAAGGGUGGCAAUACCUCUU [hsa-miR-5681a] ?
165

* * *

Test system: MCF10A
Test: percent viability (nuclei count relative to siNT); higher = more viable cells
Settings: 20 nM; 72 h
I'd appreciate it if you marked entries Y when percent viability is lower than 40% and N when it is not.

# count of solved cases: 4
query-sequence: UUUCCAUAGGUGAUGAGUCAC [hsa-miR-587]
class-name: N
//
query-sequence: UUAGGGAGUAGAAGGGUGGGGAG [hsa-miR-3162-5p]
class-name: N
//
query-sequence: GGGGAGCGAGGGGCGGGGC [hsa-miR-6090]
class-name: N
//
query-sequence: CAGGCAGUGACUGUUCAGACGUC [hsa-miR-2682-5p]
class-name: Y

Given GCAUUGUGCAGGGCUAUCA [hsa-miR-4289] , is recorded percent viability strictly lower than 40%?
Y

Another: GAUGGUUGACCAGAGAGCACAC [hsa-miR-758-5p]
N

AAUGUGGAAGUGGUCUGAGGCAU [hsa-miR-4657] , same question.
Y

Please do the same for ACUGCCCCAGGUGCUGCUGG [hsa-miR-324-3p] as well.
N

Again, but for UGCUUCCUUUCAGAGGGU [hsa-miR-516b-3p]
N

For CGGGAGCUGGGGUCUGCAGGU [hsa-miR-6726-5p] then?
N

Then UGGGUAGAGAAGGAGCUCAGAGGA [hsa-miR-3132] ?
Y

Likewise for UGACCCCCAUGUCGCCUCUGUAG [hsa-miR-6859-3p] ?
N

* * *

System: MCF10A
Experiment: one-nucleolus phenotype percent effect (relative to siNT 0% and siNOL11 100%); higher = more cells with one nucleolus (ribosome biogenesis inhibition)
Settings: 20 nM; 72 h
Listing: one-nucleolus phenotype percent effect of selected sequences
Give the value, in units of %, as a plain number.

Worked examples, 10 sequences total:
query-sequence: GUGAGUCAGGGUGGGGCUGG [hsa-miR-937-5p]
assayed-target: MCF10A
measure-unit: %
numeric-readout: 19.2
--
query-sequence: UGUAGUGUUUCCUACUUUAUGGA [hsa-miR-142-3p]
assayed-target: MCF10A
measure-unit: %
numeric-readout: 23.4
--
query-sequence: UGGGGAGCUGAGGCUCUGGGGGUG [hsa-miR-939-5p]
assayed-target: MCF10A
measure-unit: %
numeric-readout: -7.29
--
query-sequence: UCUAGUAAGAGUGGCAGUCGA [hsa-miR-628-3p]
assayed-target: MCF10A
measure-unit: %
numeric-readout: -7.59
--
query-sequence: CAGGAGGCAGUGGGCGAGCAGG [hsa-miR-4695-5p]
assayed-target: MCF10A
measure-unit: %
numeric-readout: -5.49
--
query-sequence: UGAAACUGGAGCGCCUGGAGGA [hsa-miR-4738-3p]
assayed-target: MCF10A
measure-unit: %
numeric-readout: 26.9
--
query-sequence: UGAGAUGAAGCACUGUAGCUC [hsa-miR-143-3p]
assayed-target: MCF10A
measure-unit: %
numeric-readout: -0.991
--
query-sequence: CAAAGUGCUGUUCGUGCAGGUAG [hsa-miR-93-5p]
assayed-target: MCF10A
measure-unit: %
numeric-readout: -18.1
--
query-sequence: CCACCAGGUCUAGCAUUGGGAU [hsa-miR-4733-3p]
assayed-target: MCF10A
measure-unit: %
numeric-readout: 12.6
--
query-sequence: UAGGUAGUUUCCUGUUGUUGGG [hsa-miR-196b-5p]
assayed-target: MCF10A
measure-unit: %
numeric-readout: -8.68

Quick check: one-nucleolus phenotype percent effect of UUAGACCUAGUACACGUCCUU [hsa-miR-3684] ?
-19.2

// data source = the supplement of paper PMC10899765
